Provide the recorded Avg kd for the entries that follow.
System: 50S ribosome
Experiment: SPR interaction and affinity analysis
Format: binding, S. aureus ATCC 43300
Assay Conditions: 4 °C, 1:1 Langmuir binding
The reply should contain only the number, in s⁻¹.

-- ask Avg kd for "C=C[C@]1(C)C[C@@H](OC(=O)CNCCSC)[C@]2(C)[C@H](C)CC[C@]3(CCC(=O)[C@H]32)[C@@H](C)[C@@H]1O" ?
-- reply 0.779

-- ask Avg kd for "C=C[C@]1(C)C[C@@H](OC(=O)CNCCc2cccs2)[C@]2(C)[C@H](C)CC[C@]3(CCC(=O)[C@H]32)[C@@H](C)[C@@H]1O" ?
-- reply 0.0197

-- ask Avg kd for "C=C[C@]1(C)C[C@@H](OC(=O)CNCCCc2ccccc2)[C@]2(C)[C@H](C)CC[C@]3(CCC(=O)[C@H]32)[C@@H](C)[C@@H]1O" ?
-- reply 0.000469

-- ask Avg kd for "C=C[C@]1(C)C[C@@H](OC(=O)CNCc2cccc(F)c2)[C@]2(C)[C@H](C)CC[C@]3(CCC(=O)[C@H]32)[C@@H](C)[C@@H]1O" ?
-- reply 0.00432

-- ask Avg kd for "C=C[C@]1(C)C[C@@H](OC(=O)CNCCO)[C@]2(C)[C@H](C)CC[C@]3(CCC(=O)[C@H]32)[C@@H](C)[C@@H]1O" ?
-- reply 0.0272

-- ask Avg kd for "C=C[C@]1(C)C[C@@H](OC(=O)CNc2cccc(Cl)c2)[C@]2(C)[C@H](C)CC[C@]3(CCC(=O)[C@H]32)[C@@H](C)[C@@H]1O" ?
-- reply 0.00224

-- ask Avg kd for "C=C[C@]1(C)C[C@@H](OC(=O)CNCc2ccccc2F)[C@]2(C)[C@H](C)CC[C@]3(CCC(=O)[C@H]32)[C@@H](C)[C@@H]1O" ?
-- reply 0.065

-- ask Avg kd for "C=C[C@]1(C)C[C@@H](OC(=O)CNCCCC)[C@]2(C)[C@H](C)CC[C@]3(CCC(=O)[C@H]32)[C@@H](C)[C@@H]1O" ?
-- reply 0.0231

-- ask Avg kd for "C=C[C@]1(C)C[C@@H](OC(=O)CNCc2ccc(F)cc2)[C@]2(C)[C@H](C)CC[C@]3(CCC(=O)[C@H]32)[C@@H](C)[C@@H]1O" ?
-- reply 0.00929

-- ask Avg kd for "C=C[C@]1(C)C[C@@H](OC(=O)CNc2cccc(Br)c2)[C@]2(C)[C@H](C)CC[C@]3(CCC(=O)[C@H]32)[C@@H](C)[C@@H]1O" ?
-- reply 6.25e-05

-- ask Avg kd for "C=C[C@]1(C)C[C@@H](OC(=O)CNCCc2ccccc2C)[C@]2(C)[C@H](C)CC[C@]3(CCC(=O)[C@H]32)[C@@H](C)[C@@H]1O" ?
-- reply 0.00445

###

Tested on: S. aureus (ATCC 29213)
Experiment: MIC and MBC, broth dilution, S. aureus ATCC 29213
Type: cell-based
Assay Conditions: Staphylococcus aureus, ATCC29213
Quantity Measured: MBC (µg/mL)
The reply should contain only the number, in µg/mL.

-- ask MBC for "C=C[C@]1(C)C[C@@H](OC(=O)CNc2ccc(Cl)cc2)[C@]2(C)[C@H](C)CC[C@]3(CCC(=O)[C@H]32)[C@@H](C)[C@@H]1O" ?
-- reply 1

-- ask MBC for "C=C[C@]1(C)C[C@@H](OC(=O)CNCc2ccc(F)cc2)[C@]2(C)[C@H](C)CC[C@]3(CCC(=O)[C@H]32)[C@@H](C)[C@@H]1O" ?
-- reply 32

-- ask MBC for "C=C[C@]1(C)C[C@@H](OC(=O)CNc2ccc(F)cc2)[C@]2(C)[C@H](C)CC[C@]3(CCC(=O)[C@H]32)[C@@H](C)[C@@H]1O" ?
-- reply 0.5

-- ask MBC for "C=C[C@]1(C)C[C@@H](OC(=O)CNCCCc2ccccc2)[C@]2(C)[C@H](C)CC[C@]3(CCC(=O)[C@H]32)[C@@H](C)[C@@H]1O" ?
-- reply 4

-- ask MBC for "C=C[C@]1(C)C[C@@H](OC(=O)CNc2cccc(Br)c2)[C@]2(C)[C@H](C)CC[C@]3(CCC(=O)[C@H]32)[C@@H](C)[C@@H]1O" ?
-- reply 0.5

###

Target Or Test System: 50S ribosome
Experiment: SPR interaction and affinity analysis
Assay Conditions: 4 °C, KD = Kd/Ka
Quantity Measured: Kd (mM)
The reply should contain only the number, in mM.

-- ask Given the entry C=C[C@]1(C)C[C@@H](OC(=O)CNc2ccc(Cl)cc2)[C@]2(C)[C@H](C)CC[C@]3(CCC(=O)[C@H]32)[C@@H](C)[C@@H]1O [Compound 11] , what Kd was observed with 50S ribosome?
-- reply 0.0518

-- ask Given the entry C=C[C@]1(C)C[C@@H](OC(=O)CNCCc2ccccc2)[C@]2(C)[C@H](C)CC[C@]3(CCC(=O)[C@H]32)[C@@H](C)[C@@H]1O [Compound 17] , what Kd was observed with 50S ribosome?
-- reply 4.69

-- ask Given the entry C=C[C@]1(C)C[C@@H](OC(=O)CNc2cccc(Br)c2)[C@]2(C)[C@H](C)CC[C@]3(CCC(=O)[C@H]32)[C@@H](C)[C@@H]1O [Compound 12] , what Kd was observed with 50S ribosome?
-- reply 0.00153

-- ask Given the entry C=C[C@]1(C)C[C@@H](OC(=O)CNCc2ccc(F)cc2)[C@]2(C)[C@H](C)CC[C@]3(CCC(=O)[C@H]32)[C@@H](C)[C@@H]1O [Compound 16] , what Kd was observed with 50S ribosome?
-- reply 4.56

-- ask Given the entry C=C[C@]1(C)C[C@@H](OC(=O)CNCCS(C)(=O)=O)[C@]2(C)[C@H](C)CC[C@]3(CCC(=O)[C@H]32)[C@@H](C)[C@@H]1O [Compound 25] , what Kd was observed with 50S ribosome?
-- reply 3.08

-- ask Given the entry C=C[C@]1(C)C[C@@H](OC(=O)CNCCCCCCCC)[C@]2(C)[C@H](C)CC[C@]3(CCC(=O)[C@H]32)[C@@H](C)[C@@H]1O [Compound 22, 22-Octylamineyl-22-deoxypleuromutilin] , what Kd was observed with 50S ribosome?
-- reply 0.00641

-- ask Given the entry C=C[C@]1(C)C[C@@H](OC(=O)CNCCCC)[C@]2(C)[C@H](C)CC[C@]3(CCC(=O)[C@H]32)[C@@H](C)[C@@H]1O [Compound 21, 22-Butylamineyl-22-deoxypleuromutilin] , what Kd was observed with 50S ribosome?
-- reply 5.44

###

Target Or Test System: 50S ribosome
Experiment: SPR interaction and affinity analysis
Assay Conditions: 4 °C, KD = Kd/Ka
Provide the recorded Kd for the entries that follow.
The reply should contain only the number, in µM.

-- ask Kd for C=C[C@]1(C)C[C@@H](OC(=O)CNCCCCCCCCCCCC)[C@]2(C)[C@H](C)CC[C@]3(CCC(=O)[C@H]32)[C@@H](C)[C@@H]1O [Compound 23, 22-Dodecylamineyl-22-deoxypleuromutilin] ?
-- reply 0.0456

-- ask Kd for C=C[C@]1(C)C[C@@H](OC(=O)CNCCO)[C@]2(C)[C@H](C)CC[C@]3(CCC(=O)[C@H]32)[C@@H](C)[C@@H]1O [Compound 28, 22-Ethanolamine-22-deoxypleuromutilin] ?
-- reply 9.96

-- ask Kd for C=C[C@]1(C)C[C@@H](OC(=O)CN2CCSCC2)[C@]2(C)[C@H](C)CC[C@]3(CCC(=O)[C@H]32)[C@@H](C)[C@@H]1O [Compound 30, 22-Thiomorpholine-22-deoxypleuromutilin] ?
-- reply 7.77

###

Tested on: S. aureus (ATCC 29213)
Experiment: MIC and MBC, broth dilution, S. aureus ATCC 29213
Type: cell-based
Assay Conditions: Staphylococcus aureus, ATCC29213
Quantity Measured: MBC (µg/mL)
The reply should contain only the number, in µg/mL.

-- ask MBC for "C=C[C@]1(C)C[C@@H](OC(=O)CNCCO)[C@]2(C)[C@H](C)CC[C@]3(CCC(=O)[C@H]32)[C@@H](C)[C@@H]1O" ?
-- reply 8

-- ask MBC for "C=C[C@]1(C)C[C@@H](OC(=O)CNc2cccc(Cl)c2)[C@]2(C)[C@H](C)CC[C@]3(CCC(=O)[C@H]32)[C@@H](C)[C@@H]1O" ?
-- reply 0.25

-- ask MBC for "C=C[C@]1(C)C[C@@H](OC(=O)CNCCSC)[C@]2(C)[C@H](C)CC[C@]3(CCC(=O)[C@H]32)[C@@H](C)[C@@H]1O" ?
-- reply 2

-- ask MBC for "C=C[C@]1(C)C[C@@H](OC(=O)CNCCc2ccccc2)[C@]2(C)[C@H](C)CC[C@]3(CCC(=O)[C@H]32)[C@@H](C)[C@@H]1O" ?
-- reply 8

-- ask MBC for "C=C[C@]1(C)C[C@@H](OC(=O)CNC23CC4CC(CC(C4)C2)C3)[C@]2(C)[C@H](C)CC[C@]3(CCC(=O)[C@H]32)[C@@H](C)[C@@H]1O" ?
-- reply 1

-- ask MBC for "C=C[C@]1(C)C[C@@H](OC(=O)CNc2ccc(Br)cc2)[C@]2(C)[C@H](C)CC[C@]3(CCC(=O)[C@H]32)[C@@H](C)[C@@H]1O" ?
-- reply 0.25

-- ask MBC for "C=C[C@]1(C)C[C@@H](OC(=O)CN2CCSCC2)[C@]2(C)[C@H](C)CC[C@]3(CCC(=O)[C@H]32)[C@@H](C)[C@@H]1O" ?
-- reply 2

-- ask MBC for "C=C[C@]1(C)C[C@@H](OC(=O)CNCc2ccccc2F)[C@]2(C)[C@H](C)CC[C@]3(CCC(=O)[C@H]32)[C@@H](C)[C@@H]1O" ?
-- reply 8

-- ask MBC for "C=C[C@]1(C)C[C@@H](OC(=O)CNCCCC)[C@]2(C)[C@H](C)CC[C@]3(CCC(=O)[C@H]32)[C@@H](C)[C@@H]1O" ?
-- reply 4

-- ask MBC for "C=C[C@]1(C)C[C@@H](OC(=O)CNc2cccc(F)c2)[C@]2(C)[C@H](C)CC[C@]3(CCC(=O)[C@H]32)[C@@H](C)[C@@H]1O" ?
-- reply 0.25

-- ask MBC for "C=C[C@]1(C)C[C@@H](OC(=O)CNCCc2ccccc2C)[C@]2(C)[C@H](C)CC[C@]3(CCC(=O)[C@H]32)[C@@H](C)[C@@H]1O" ?
-- reply 8
